# Tested on: Abutilon theophrasti (ABUTH)
# assay-protocol: Herbicidal efficacy, post-emergence application (glasshouse)
# Format: in vivo
# condition-description: Abutilon theophrasti, 312 h, evaluated visually after 13 days, 100=total damage, 0=no damage, read-out: percentage phytotoxicity to the plant, ABUTH
Some compounds, each annotated with its measured pest or weed control at 250 g/ha.

- compound: "CN1C[C@H](c2cc(C(F)(F)F)n(C)n2)[C@@H](C(=O)Nc2ccc(F)nc2F)C1=O [Compound 2.8]"
  unit-text: "%"
  pest or weed control at 250 g/ha: 0
- compound: "CN1C[C@H](c2cc(C(F)(F)F)n(C)n2)[C@@H](C(=O)Nc2cccc(F)c2OC(F)(F)F)C1=O [Compound 2.4]"
  unit-text: "%"
  pest or weed control at 250 g/ha: 0
- compound: "CN1C[C@H](c2cc(C(F)(F)F)n(C)n2)[C@@H](C(=O)Nc2cccc(F)n2)C1=O [Compound 2.9]"
  unit-text: "%"
  pest or weed control at 250 g/ha: 0
- compound: "CN1C[C@H](c2cc(C(F)(F)F)n(C)n2)[C@@H](C(=O)Nc2ccc(F)cc2F)C1=O [Compound 2.3]"
  unit-text: "%"
  pest or weed control at 250 g/ha: 60
- compound: "CN1C[C@H](c2cnn(C)c2C(F)(F)F)[C@@H](C(=O)Nc2cccc(F)c2F)C1=O [Compound 2.15]"
  unit-text: "%"
  pest or weed control at 250 g/ha: 0
